Data credit: PubChem BioAssay AID1381

Would you mind telling me the reported z-score of each entry?
test: inhibitors of GR-EGFP nuclear translocation, primary screen, dynein cargo transport inhibitor project, imaging, high-content, 3617.4 mouse cells (AID 1381); settings: measured here: cytoplasmic GR-EGFP intensity, at 20 µM, stronger effect = higher value, stimulated with dexamethasone, 1 µM
Screen size: about 220,000 compounds; about 1,000 (0.45%) were called active. What follows is part of a selection rich in actives, with near analogues and random picks from the rest.
// return a plain number; no unit text

(Q) Need z-score, item `CC(=O)c1cc(C#N)c(SCC(=O)Nc2nccs2)nc1C`
(A) -0.205

(Q) Need z-score, item `Cc1[nH]c2ccccc2c1C(=O)COC(=O)c1c(-c2ccccc2)noc1C`
(A) -0.281

(Q) Need z-score, item `Cn1c(=O)c([N+](=O)[O-])c(Oc2ccccc2)c2ccccc21`
(A) 1.62

(Q) Need z-score, item `O=C(NCc1cccnc1)c1cccc(-c2cc3ccccc3oc2=O)c1`
(A) -0.22

(Q) Need z-score, item `Cc1ccc(O)c(CCc2ccccc2)n1`
(A) -0.202

(Q) Need z-score, item `CCn1c(SCc2cc(=O)n3ccsc3n2)nc2ccccc21`
(A) -0.319

(Q) Need z-score, item `Cc1cccc(Oc2c([N+](=O)[O-])c(=O)n(C)c3ccccc23)c1`
(A) 0.943

(Q) Need z-score, item `COc1cc(OC)nc(S(C)(=O)=O)n1`
(A) -0.228

(Q) Need z-score, item `COc1cc2c(cc1OC)C(Nc1ccc(S(N)(=O)=O)cc1)=NC(C)(C)C2`
(A) -0.265

(Q) Need z-score, item `COc1ccc(-c2cc(C(F)(F)F)nc(S(C)(=O)=O)n2)cc1OC`
(A) 1.61

(Q) Need z-score, item `C[C@H](NC(=O)OC(C)(C)C)c1nnc(SCC(N)=O)o1`
(A) -0.175

(Q) Need z-score, item `Cc1cccc(NC(=S)N2CCC(c3nc4ccccc4s3)CC2)c1`
(A) -0.197

(Q) Need z-score, item `C[C@@H](NC(=O)OC(C)(C)C)c1nnc(S(=O)(=O)Cc2ccccc2)o1`
(A) 1.44

(Q) Need z-score, item `CCc1c(SCCC(=O)O)nc2ccccc2c1C`
(A) -0.252

(Q) Need z-score, item `Cc1ccc(NC(=O)CN(C)Cc2ccc(F)cc2)c([N+](=O)[O-])c1`
(A) -0.22

(Q) Need z-score, item `COC(=O)c1ccc(CSc2nnc(N)s2)o1`
(A) -0.292

(Q) Need z-score, item `O=Cc1ccc(Oc2cccc(C(F)(F)F)c2)nc1`
(A) 0.359

(Q) Need z-score, item `Cc1nc(-c2ccccc2)sc1C(=O)/C=C/c1ccccc1`
(A) -0.0664

(Q) Need z-score, item `O=C(Nc1ccccc1)OCc1cc(-c2ccc(Cl)cc2)on1`
(A) -0.165

(Q) Need z-score, item `Cc1ccccc1NC(=S)Nc1cccc([N+](=O)[O-])c1`
(A) -0.193

(Q) Need z-score, item `O=C1c2ccccc2C(=O)N1Cc1cc(-c2ccccc2Cl)no1`
(A) -0.215

(Q) Need z-score, item O=C1c2ccccc2NC(c2ccccn2)N1NS(=O)(=O)c1ccccc1 (configuration not stated)
(A) -0.348
